target-system: HBO1 (Homo sapiens, UniProt O95251)
Construct: gene KAT7; HBO1 (336-611), acyltransferase/catalytic domain, purified from E. coli
Sequence (O95251 336-611): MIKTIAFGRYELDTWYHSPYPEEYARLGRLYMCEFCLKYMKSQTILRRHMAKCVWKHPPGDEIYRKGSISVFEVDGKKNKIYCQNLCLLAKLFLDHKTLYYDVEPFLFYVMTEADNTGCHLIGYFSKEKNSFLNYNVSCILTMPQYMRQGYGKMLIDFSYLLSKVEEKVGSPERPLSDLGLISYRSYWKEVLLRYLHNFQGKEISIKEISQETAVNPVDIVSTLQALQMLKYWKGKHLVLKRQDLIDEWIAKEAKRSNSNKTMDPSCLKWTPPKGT
assay-explanation: isothermal titration calorimetry (supported by in vitro histone acetylation assay with purified HBO1)
Format: binding
metric: pKd
Quick note: pKd means taking -log10 of the concentration in moles per liter.

Query: pKd; subject: `CC(=O)SCCNC(=O)CCNC(=O)[C@H](O)C(C)(C)COP(=O)(O)OP(=O)(O)OC[C@H]1O[C@@H](n2cnc3c(N)ncnc32)[C@H](O)[C@@H]1OP(=O)(O)O`
5.84

----------
target-system: HBO1 (Homo sapiens, UniProt O95251)
Construct: gene KAT7; HBO1 (336-611), acyltransferase/catalytic domain, purified from E. coli
assay-explanation: isothermal titration calorimetry (supported by in vitro histone lactylation assay with purified HBO1)
Format: binding
metric: Kd (nM)
Please give a number only; it is taken to be in nM.

Param readout = Kd; param system = HBO1 (Homo sapiens, UniProt O95251); param query = `C[C@H](O)C(=O)SCCNC(=O)CCNC(=O)[C@H](O)C(C)(C)COP(=O)(O)OP(=O)(O)OC[C@H]1O[C@@H](n2cnc3c(N)ncnc32)[C@H](O)[C@@H]1OP(=O)(O)O` ; response: value
520
